ASSAYED_SYSTEM: Toll-like receptor 9 (Mus musculus)
Sequence (whole entry): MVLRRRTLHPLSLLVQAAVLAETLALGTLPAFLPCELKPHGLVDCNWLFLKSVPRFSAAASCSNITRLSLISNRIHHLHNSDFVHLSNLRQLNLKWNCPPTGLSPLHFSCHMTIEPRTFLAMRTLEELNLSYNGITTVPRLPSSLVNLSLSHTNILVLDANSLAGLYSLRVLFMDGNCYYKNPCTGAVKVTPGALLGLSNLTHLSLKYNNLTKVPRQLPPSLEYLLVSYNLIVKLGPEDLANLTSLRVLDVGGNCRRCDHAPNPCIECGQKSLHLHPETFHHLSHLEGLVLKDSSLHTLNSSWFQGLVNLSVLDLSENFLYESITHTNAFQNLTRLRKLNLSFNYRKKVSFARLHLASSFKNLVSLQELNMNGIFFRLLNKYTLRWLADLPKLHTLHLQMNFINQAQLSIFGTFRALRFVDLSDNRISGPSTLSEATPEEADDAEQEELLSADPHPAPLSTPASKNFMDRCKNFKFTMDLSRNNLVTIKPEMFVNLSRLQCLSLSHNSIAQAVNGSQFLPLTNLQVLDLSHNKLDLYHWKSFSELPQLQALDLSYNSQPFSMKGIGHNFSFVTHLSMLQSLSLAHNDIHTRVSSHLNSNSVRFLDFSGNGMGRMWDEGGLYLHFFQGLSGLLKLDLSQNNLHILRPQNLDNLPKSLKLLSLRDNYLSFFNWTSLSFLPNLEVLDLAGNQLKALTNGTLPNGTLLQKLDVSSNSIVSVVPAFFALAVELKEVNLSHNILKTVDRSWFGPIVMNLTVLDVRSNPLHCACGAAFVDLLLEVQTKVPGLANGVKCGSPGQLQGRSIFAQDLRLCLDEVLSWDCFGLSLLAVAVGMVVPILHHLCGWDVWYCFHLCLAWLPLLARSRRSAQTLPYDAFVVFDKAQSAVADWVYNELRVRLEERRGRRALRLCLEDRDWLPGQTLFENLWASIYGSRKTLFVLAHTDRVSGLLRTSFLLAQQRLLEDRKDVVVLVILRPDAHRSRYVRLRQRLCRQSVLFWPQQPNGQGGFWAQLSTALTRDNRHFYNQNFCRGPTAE
TEST_SUMMARY: Inhibition of TLR9 in BALB/c mouse BMDM assessed as downregulation of CpG-stimulated IL-6 level at 5 ug/ml preincubated for 18 hrs followed by CpG challenge measured after 24 hrs by ELISA relative to control
Activity calls are given as the source filed them. No rule for the calls is given here.
Bench note: report the call from active, inactive

Worked examples follow.
GIVEN_SMILES | LABEL
O=S(=O)(Cc1ccc2ccccc2c1)NCCN1CCCC1 | inactive
CN(C)CCNCCS(=O)(=O)c1ccccc1 | inactive
Cc1ccc(CS(=O)(=O)CCCN2CCCC2)cc1 | inactive
O=S(=O)(CCN1CCSCC1)c1ccccc1 | inactive
O=S(=O)(CCN1CCCC1)Cc1ccc(F)cc1 | inactive

Exam item: Hi team, can someone confirm the assay call for O=S(=O)(CCN1CCOCC1)Cc1ccc(F)cc1 ?
Marked response: inactive

Exam item: Hi team, can someone confirm the assay call for O=S(=O)(CCN1CCOCC1)NCc1ccc(Br)cc1 ?
Marked response: inactive

Exam item: Hi team, can someone confirm the assay call for COc1cccc(C(=O)NCCCN(C)C)c1 ?
Marked response: active
